The measurements presented in this section are drawn from paper PMC9768162.

Reported MIC values follow for various compounds
Tested on: E. faecalis
assay-remarks: Antibacterial activity, MIC by microdilution broth method (CLSI)
Type: cell-based
condition-context: Enterococcus faecalis, clinically isolated E. faecalis strain 22
Kindly write the number and append the unit.

Field: example entries. Status: answers known.
CCCCCCCCCCCCCCCC(=O)O[C@@H]1C[C@@H]2CN(C1)[C@H](C(=O)O)[C@@H]([C@H]1O[C@@H](n3ccc(=O)[nH]c3=O)[C@H](O)[C@@H]1O)O[C@@H]1O[C@H](CN2)[C@@H](O)[C@H]1O [SPM-3]    0.5 µg/mL
C[C@H]1COc2c(N3CCN(C)CC3)c(F)cc3c(=O)c(C(=O)O)cn1c23 [Levofloxacin]    1 µg/mL
CC1(C)S[C@@H]2[C@H](NC(=O)[C@H](N)c3ccccc3)C(=O)N2[C@H]1C(=O)O [Ampicillin]    1 µg/mL

Problem: Output measured MIC for this item: CN[C@H](CC(C)C)C(=O)N[C@H]1C(=O)N[C@@H](CC(N)=O)C(=O)N[C@H]2C(=O)N[C@H]3C(=O)N[C@H](C(=O)N[C@H](C(=O)O)c4cc(O)cc(O)c4-c4cc3ccc4O)[C@H](O)c3ccc(c(Cl)c3)Oc3cc2cc(c3O[C@@H]2O[C@H](CO)[C@@H](O)[C@H](O)[C@H]2O[C@H]2C[C@](C)(N)[C@H](O)[C@H](C)O2)Oc2ccc(cc2Cl)[C@H]1O [Vancomycin]
Result: 1 µg/mL

---

Test system: S. aureus
assay-remarks: Antibacterial activity, MIC by microdilution broth method (CLSI)
Format: cell-based, Staphylococcus aureus
condition-context: Staphylococcus aureus, ATCC29213, 20 h, S. aureus ATCC 29213; CA-MHB, 37 °C, 20 h
Reported MIC values follow for various compounds

Field: example entries. Status: answers known.
C[C@H]1COc2c(N3CCN(C)CC3)c(F)cc3c(=O)c(C(=O)O)cn1c23    0.13 mg/L
CN[C@H](CC(C)C)C(=O)N[C@H]1C(=O)N[C@@H](CC(N)=O)C(=O)N[C@H]2C(=O)N[C@H]3C(=O)N[C@H](C(=O)N[C@H](C(=O)O)c4cc(O)cc(O)c4-c4cc3ccc4O)[C@H](O)c3ccc(c(Cl)c3)Oc3cc2cc(c3O[C@@H]2O[C@H](CO)[C@@H](O)[C@H](O)[C@H]2O[C@H]2C[C@](C)(N)[C@H](O)[C@H](C)O2)Oc2ccc(cc2Cl)[C@H]1O    1 mg/L
CCCCCCCCCCCCCCCC(=O)O[C@@H]1C[C@@H]2CN(C1)[C@H](C(=O)O)[C@@H]([C@H]1O[C@@H](n3ccc(=O)[nH]c3=O)[C@H](O)[C@@H]1O)O[C@@H]1O[C@H](CN2)[C@@H](O)[C@H]1O    8 mg/L
CCCCCCCCCCCCCCCC(=O)O[C@@H]1[C@@H]2CN(C[C@@H]1O)[C@H](C(=O)O)[C@@H]([C@H]1O[C@@H](n3ccc(=O)[nH]c3=O)[C@H](O)[C@@H]1O)O[C@@H]1O[C@H](CN2)[C@@H](O)[C@H]1O    2 mg/L
CCCCCCCCCCCCCCCC(=O)O[C@@H]1[C@H](O)CN2C[C@H]1NC[C@H]1O[C@@H](O[C@H]([C@H]3O[C@@H](n4ccc(=O)[nH]c4=O)[C@H](O)[C@@H]3O)[C@H]2C(=O)O)[C@H](O)[C@@H]1O    > 64 mg/L

Problem: Output measured MIC for this item: "CC1(C)S[C@@H]2[C@H](NC(=O)[C@H](N)c3ccccc3)C(=O)N2[C@H]1C(=O)O"
Result: 1 mg/L

---

System: E. faecalis
assay-remarks: Antibacterial activity, MIC by microdilution broth method (CLSI)
Assay type: cell-based
condition-context: Enterococcus faecalis, clinically isolated E. faecalis strain 25
Reported MIC values follow for various compounds

Field: example entries. Status: answers known.
C[C@H]1COc2c(N3CCN(C)CC3)c(F)cc3c(=O)c(C(=O)O)cn1c23    0.5 µg/mL
CN[C@H](CC(C)C)C(=O)N[C@H]1C(=O)N[C@@H](CC(N)=O)C(=O)N[C@H]2C(=O)N[C@H]3C(=O)N[C@H](C(=O)N[C@H](C(=O)O)c4cc(O)cc(O)c4-c4cc3ccc4O)[C@H](O)c3ccc(c(Cl)c3)Oc3cc2cc(c3O[C@@H]2O[C@H](CO)[C@@H](O)[C@H](O)[C@H]2O[C@H]2C[C@](C)(N)[C@H](O)[C@H](C)O2)Oc2ccc(cc2Cl)[C@H]1O    1 µg/mL
CCCCCCCCCCCCCCCC(=O)O[C@@H]1C[C@@H]2CN(C1)[C@H](C(=O)O)[C@@H]([C@H]1O[C@@H](n3ccc(=O)[nH]c3=O)[C@H](O)[C@@H]1O)O[C@@H]1O[C@H](CN2)[C@@H](O)[C@H]1O    0.5 µg/mL

Problem: Output measured MIC for this item: "CC1(C)S[C@@H]2[C@H](NC(=O)[C@H](N)c3ccccc3)C(=O)N2[C@H]1C(=O)O"
Result: 1 µg/mL

---

Tested on: S. aureus
assay-remarks: Antibacterial activity, MIC by microdilution broth method (CLSI)
Type: cell-based, Staphylococcus aureus
condition-context: Staphylococcus aureus, MRSA, clinically isolated MRSA #2310
Reported MIC values follow for various compounds
Write down the numeric answer in µg/mL and omit the unit.

Field: example entries. Status: answers known.
CCCCCCCCCCCCCCCC(=O)O[C@@H]1C[C@@H]2CN(C1)[C@H](C(=O)O)[C@@H]([C@H]1O[C@@H](n3ccc(=O)[nH]c3=O)[C@H](O)[C@@H]1O)O[C@@H]1O[C@H](CN2)[C@@H](O)[C@H]1O    32
CC1(C)S[C@@H]2[C@H](NC(=O)[C@H](N)c3ccccc3)C(=O)N2[C@H]1C(=O)O    32

Continue with the next compound.
Problem: Output measured MIC for this item: "CN[C@H](CC(C)C)C(=O)N[C@H]1C(=O)N[C@@H](CC(N)=O)C(=O)N[C@H]2C(=O)N[C@H]3C(=O)N[C@H](C(=O)N[C@H](C(=O)O)c4cc(O)cc(O)c4-c4cc3ccc4O)[C@H](O)c3ccc(c(Cl)c3)Oc3cc2cc(c3O[C@@H]2O[C@H](CO)[C@@H](O)[C@H](O)[C@H]2O[C@H]2C[C@](C)(N)[C@H](O)[C@H](C)O2)Oc2ccc(cc2Cl)[C@H]1O"
Result: 2

---

System: E. faecalis
assay-remarks: Antibacterial activity, MIC by microdilution broth method (CLSI)
Assay type: cell-based
condition-context: Enterococcus faecalis, clinically isolated E. faecalis strain 29
Reported MIC values follow for various molecules
Write down the numeric answer in µg/mL and omit the unit.

Field: example entries. Status: answers known.
C[C@H]1COc2c(N3CCN(C)CC3)c(F)cc3c(=O)c(C(=O)O)cn1c23 [Levofloxacin]    0.5
CCCCCCCCCCCCCCCC(=O)O[C@@H]1C[C@@H]2CN(C1)[C@H](C(=O)O)[C@@H]([C@H]1O[C@@H](n3ccc(=O)[nH]c3=O)[C@H](O)[C@@H]1O)O[C@@H]1O[C@H](CN2)[C@@H](O)[C@H]1O [SPM-3]    1
CC1(C)S[C@@H]2[C@H](NC(=O)[C@H](N)c3ccccc3)C(=O)N2[C@H]1C(=O)O [Ampicillin]    1

Problem: Output measured MIC for this item: CN[C@H](CC(C)C)C(=O)N[C@H]1C(=O)N[C@@H](CC(N)=O)C(=O)N[C@H]2C(=O)N[C@H]3C(=O)N[C@H](C(=O)N[C@H](C(=O)O)c4cc(O)cc(O)c4-c4cc3ccc4O)[C@H](O)c3ccc(c(Cl)c3)Oc3cc2cc(c3O[C@@H]2O[C@H](CO)[C@@H](O)[C@H](O)[C@H]2O[C@H]2C[C@](C)(N)[C@H](O)[C@H](C)O2)Oc2ccc(cc2Cl)[C@H]1O [Vancomycin]
Result: 1

---

Tested on: E. faecalis
assay-remarks: Antibacterial activity, MIC by microdilution broth method (CLSI)
Assay type: cell-based
condition-context: Enterococcus faecalis, clinically isolated E. faecalis strain 35
parameter: MIC (µg/mL)
Write down the numeric answer in µg/mL and omit the unit.

Field: example entries. Status: answers known.
C[C@H]1COc2c(N3CCN(C)CC3)c(F)cc3c(=O)c(C(=O)O)cn1c23    2
CN[C@H](CC(C)C)C(=O)N[C@H]1C(=O)N[C@@H](CC(N)=O)C(=O)N[C@H]2C(=O)N[C@H]3C(=O)N[C@H](C(=O)N[C@H](C(=O)O)c4cc(O)cc(O)c4-c4cc3ccc4O)[C@H](O)c3ccc(c(Cl)c3)Oc3cc2cc(c3O[C@@H]2O[C@H](CO)[C@@H](O)[C@H](O)[C@H]2O[C@H]2C[C@](C)(N)[C@H](O)[C@H](C)O2)Oc2ccc(cc2Cl)[C@H]1O    1
CCCCCCCCCCCCCCCC(=O)O[C@@H]1C[C@@H]2CN(C1)[C@H](C(=O)O)[C@@H]([C@H]1O[C@@H](n3ccc(=O)[nH]c3=O)[C@H](O)[C@@H]1O)O[C@@H]1O[C@H](CN2)[C@@H](O)[C@H]1O    1

Problem: Output measured MIC for this item: "CC1(C)S[C@@H]2[C@H](NC(=O)[C@H](N)c3ccccc3)C(=O)N2[C@H]1C(=O)O"
Result: 0.5
